system: H. pylori; assay: Liquid medium assay, MBC determination (CFU count after subculture); type: cell-based; details: Helicobacter pylori; pure compounds, Table 2; pH 7.4; read-out: Liquid medium MBC
In this section we review reported MBC values for a set of compounds.
Respond numerically; units are µg/mL and should not be typed.

Sample answers from the record:
COMPOUND: CC(C)=CCC/C(C)=C\CO
ASSAYED_TARGET: H. pylori
MBC / µg/mL: 40
//
COMPOUND: CC1=CCC2CC1C2(C)C (stereo not drawn)
ASSAYED_TARGET: H. pylori
MBC / µg/mL: 100
//
COMPOUND: CC(C)=CCCC(C)=CCCC(C)=CCO
ASSAYED_TARGET: H. pylori
MBC / µg/mL: 40
//
COMPOUND: Cc1ccc(C(C)C)c(O)c1
ASSAYED_TARGET: H. pylori
MBC / µg/mL: 100

MBC for C=C1CCC2CC1C2(C)C (stereo not drawn) ?
100

MBC for `C=CCc1ccc(O)c(OC)c1` ?
100

MBC for `CC=Cc1ccc(O)c(OC)c1` ?
40

MBC for CCC/C=C/C=O [Trans-2-hexenal] ?
40

MBC for CC(C)=CCCC(C)CC=O (stereo not drawn) ?
100

###

In this section we review reported MBC values for a set of compounds.
system: H. pylori; assay: Liquid medium assay, MBC determination (CFU count after subculture); format: cell-based; details: Helicobacter pylori; pure compounds, Table 2; pH 7.4; read-out: Liquid medium MBC
Respond numerically; units are µg/mL and should not be typed.

Sample answers from the record:
COMPOUND: C=CC(C)(O)CCC=C(C)C (stereo not drawn)
MBC (µg/mL): 100
//
COMPOUND: CC(C)=CCCC(C)=CC=O
MBC (µg/mL): 40

MBC for `CC(C)=CCC/C(C)=C/CO` ?
100

###

test system: H. pylori; experiment: Liquid medium assay, MBC determination (CFU count after subculture); assay type: cell-based; settings: Helicobacter pylori; pure compounds, Table 2; pH 7.4; read-out: Liquid medium MBC
MEASURED_ENDPOINT: MBC

COMPOUND: CC12CCC(CC1)C(C)(C)O2
RESULT: > 100 µg/mL

MBC for CC1CCC(C(C)C)C(O)C1 (stereo not drawn) ?
> 100 µg/mL

MBC for CC(=O)OC/C=C(\C)CCC=C(C)C [Geranyl acetate] ?
> 100 µg/mL

The measured values listed here are drawn from patent US20050181072A1.
